# System: INS-1E rat beta cells, no cytokines, CellTiter-Glo ATP, 48 h
# test.details: cytokine-free beta-cell viability effect – INS-1E rat cells, ATP luminescence, cherry pick, counter-screen for beta-cell apoptosis protection project, dose response (AID 463229)

- compound: "CCn1c(C)c(C)c2cc(C(=O)N3CCc4ccccc4C3)ccc21"
  AC50: "3.14 µM"
- compound: "CN1CCN(c2ccc(CNS(=O)(=O)Cc3cccc(C(F)(F)F)c3)cc2)CC1"
  AC50: "8.93 µM"
- compound: "Cc1csc2ncnc(N3CCN(S(=O)(=O)c4cccc(C(F)(F)F)c4)CC3)c12"
  AC50: "5.81 µM"
- compound: "CCCCCCCCCC[N+](C)(C)CC/C=C1/c2ccccc2Sc2ccc(Cl)cc21"
  AC50: "7.99 µM"
- compound: "CC(C)n1cnc2c(NCc3ccccc3)cc(N[C@H](C)CO)cc21"
  AC50: "13.7 µM"
- compound: "CCc1ccc(-c2nn(-c3ccccc3)cc2CSC(=N)N)cc1"
  AC50: "8.32 µM"
- compound: "CCOC(=O)c1cnc(-n2nc(C)cc2C)nc1NCc1ccccc1"
  AC50: "7.8 µM"
- compound: "CCOc1ccc(S(=O)(=O)N(C(=O)c2ccco2)c2cc3sc(=O)oc3c3ccccc23)cc1"
  AC50: "12.7 µM"
- compound: "Cc1cccc(OCc2n(CC(=O)OC3CC(C)CCC3C(C)C)c3ccccc3[n+]2C)c1 (configuration not stated)"
  AC50: "4.12 µM"
- compound: "O=C(Nc1ccc(OCC(F)(F)C(F)F)c(C(F)(F)F)c1)c1ccccc1O"
  AC50: "6.48 µM"
- compound: "CC(C)Cn1c(N)c(C(=O)CSc2ccc3c(c2)OCCO3)c(=O)n(C)c1=O"
  AC50: "4.85 µM"
- compound: "CC(C)(C)c1cc(NCCCn2ccnc2)n2ncc(-c3ccccc3)c2n1"
  AC50: "15 µM"
- compound: "CC(C)(C)c1ccc(NNC(=O)C2CCC2)cc1"
  AC50: "9.64 µM"
- compound: "O=C(Oc1c(CN2CCOCC2)cc(Cl)c2cccnc12)c1ccccc1"
  AC50: "17.1 µM"
- compound: "O=C(c1cc2sccc2n1Cc1ccccc1)N1CCN(c2nc3ccccc3s2)CC1"
  AC50: "5.51 µM"
- compound: "Cc1cc(C)nc(SCC(=O)NC2=NN=C(c3ccc(Br)cc3)CS2)n1"
  AC50: "2.52 µM"
- compound: "CCN1CCN(Cc2ccc(NC(=O)c3cc(NC(=O)C(=O)c4c[nH]c5ccccc45)cc(OC)c3)cc2C(F)(F)F)CC1"
  AC50: "7.12 µM"
- compound: "Cc1ccc(-c2nn(-c3ccccc3)cc2/C=N/NC(=O)c2ccc3c(c2)OCO3)cc1"
  AC50: "5.63 µM"
- compound: "Cc1ccc(CSC(Nc2ccc(F)cc2)=C(C#N)C#N)cc1"
  AC50: "4.11 µM"
- compound: "COc1ccccc1/C=C1\\SC(=O)N(CCC(=O)NCCCn2ccnc2)C1=O"
  AC50: "8.2 µM"
- compound: "COc1ccc(C(=O)c2c(C(F)(F)F)oc3c2C(=O)c2ccccc2C3=O)cc1"
  AC50: "6.74 µM"
- compound: "Oc1cccc(/C=N/NC(=S)Nc2cccnc2)c1O"
  AC50: "8.6 µM"
- compound: "COc1ccc(CN(C)c2ccc(S(=O)(=O)N3CCN(C)CC3)cc2[N+](=O)[O-])cc1OC"
  AC50: "2.83 µM"
- compound: "CCCC(=O)NC(c1ccc2c(c1)OCO2)c1cc(Cl)c2cccnc2c1O (configuration not stated)"
  AC50: "4.39 µM"
- compound: "Cc1c(N/N=C(\\C#N)C(=O)c2ccc(Cl)cc2)c(=O)n(-c2ccccc2)n1C"
  AC50: "5.35 µM"
- compound: "C=CCC1(CC=C)CCCN1C(=O)c1cc(COc2ccc(C)nc2)on1"
  AC50: "2.54 µM"
- compound: "O=C(/C=C/NNC(=O)c1ccccc1)c1ccc([N+](=O)[O-])cc1"
  AC50: "5.76 µM"
- compound: "Cc1ccccc1Oc1cc(-n2ncc(Cl)c(Cl)c2=O)ncn1"
  AC50: "3.98 µM"
- compound: "Clc1cccc(N=C2NN=C(c3ccc4c(c3)OCCO4)CS2)c1"
  AC50: "1.76 µM"
- compound: "Oc1ccc(COCc2ccccc2)c2cccnc12"
  AC50: "4.28 µM"
- compound: "CCCCC(=O)NC(c1ccco1)c1cc(Cl)c2cccnc2c1O (configuration not stated)"
  AC50: "12.4 µM"
- compound: "Cc1ccc2nc(-c3cccc(-c4cccc(Cl)c4)c3)c(NCc3ccccc3)n2c1"
  AC50: "7.11 µM"
